# Tested On: Cannabinoid receptor 2 (Homo sapiens, UniProt P34972)
# Sequence (P34972 whole entry): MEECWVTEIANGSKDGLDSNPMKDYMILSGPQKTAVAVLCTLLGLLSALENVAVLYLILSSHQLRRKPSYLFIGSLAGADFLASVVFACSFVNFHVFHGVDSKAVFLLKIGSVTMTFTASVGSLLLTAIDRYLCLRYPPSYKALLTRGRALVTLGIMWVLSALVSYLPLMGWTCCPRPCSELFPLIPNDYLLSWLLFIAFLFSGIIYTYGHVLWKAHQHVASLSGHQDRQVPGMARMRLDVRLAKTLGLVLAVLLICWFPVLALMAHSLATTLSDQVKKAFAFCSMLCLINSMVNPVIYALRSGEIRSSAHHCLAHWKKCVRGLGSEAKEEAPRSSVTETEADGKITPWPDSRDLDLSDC
# Protocol Summary: radioligand binding [3H]WIN55,212-2, ternary complex allosteric model
Property Name: Kd (µM)
Reply with just the number (in µM).

Q. Any idea what Kd was measured for RVDPVNFKLLSH ([3H]WIN55,212-2 present) [Pepcan-12 (RVD-hemopressin)] ?
A. 0.053

Data provenance: paper PMC5573408
